- TARGET ENTITY: OXA-1 (Escherichia coli)
- REPORTED CONDITIONS: read-out: IC50 β-lactamase OXA-1; class (D); nitrocefin 200 μM, 30-min pre-incubation, enzyme 0.2 nM
pIC50: −log10 of the molar value.
QUANTITY MEASURED: pIC50

>>> reported_result("CC(=O)Nc1ccn(C2=CC3CN(C2)C(=O)N3OS(=O)(=O)O)n1.CCN(CC)CC (centres unmarked)")
7.17
>>> reported_result("NCCNC(=O)Cc1ccn(C2=CC3CN(C2)C(=O)N3OS(=O)(=O)[O-])n1.O=C(O)C(F)(F)F.[Na+] (centres unmarked)")
6.03
>>> reported_result("NC(=O)c1cn(C2=CC3CN(C2)C(=O)N3OS(=O)(=O)[O-])nn1.[Na+] (centres unmarked)")
7.52
>>> reported_result("NCc1cnn(C2=CC3CN(C2)C(=O)N3OS(=O)(=O)[O-])c1.O=C(O)C(F)(F)F.[Na+] (centres unmarked)")
6.15
>>> reported_result("O=C1N2CC(n3cc(S(=O)(=O)NCCO)cn3)=CC(C2)N1OS(=O)(=O)[O-].[Na+] (centres unmarked)")
7.66
>>> reported_result("NC(=O)c1cc(F)n(C2=CC3CN(C2)C(=O)N3OS(=O)(=O)[O-])n1.[Na+] (centres unmarked)")
6.46
>>> reported_result("O=C1N2CC(n3cc(-c4nccs4)nn3)=CC(C2)N1OS(=O)(=O)[O-].[Na+] (centres unmarked)")
7.59
>>> reported_result("NCc1ccn(C2=CC3CN(C2)C(=O)N3OS(=O)(=O)[O-])n1.O=C(O)C(F)(F)F.[Na+] (centres unmarked)")
6.17
